Tested on: CCRIS mutagenicity, Ames/micronucleus/aberration tests
Test: CCRIS mutagenicity studies
Details: Test System: AMES SALMONELLA TYPHIMURIUM; Strain/Indicator: TA100; Metabolic Activation: RAT, LIVER, S-9, PCB; Method: PREINCUBATION
Calls of active or inactive are those of the source. No rule for the calls is given here.
Possible outcomes: true (1) (active), false (0) (inactive)

> print(dat)
                                    molecule  qualitative.label
 1            Cc1ccc2c(c1O)C(=O)c1ccccc1C2=O           true (1)
 2                   Nc1ccc(Cc2ccc(N)cc2)cc1           true (1)
 3            CCCCN(C[C@H](CO)OCc1ccccc1)N=O           true (1)
 4  O=C(O)c1ccc(/C=C/c2ccc([N+](=O)[O-])o2)cc1           true (1)
 5  C/C=C1\CC(C)C(C)(OC(C)=O)C(=O)OCC2=C3C(CC[N+]3(C)C=C2)OC1=O (stereo unspecified)           true (1)
 6      O=C1c2cccc(O)c2C(=O)c2c(O)cc(CO)cc21           true (1)
 7      O=C1c2ccc([N+](=O)[O-])cc2C(=O)N1CCl           true (1)
 8              CNc1ccc2ncc(-c3ccccc3)nc2c1C           true (1)
 9          O=C1c2ccccc2C(=O)c2c(O)cc(O)cc21           true (1)
10        O=C1c2ccccc2C(=O)c2c1cc(O)c(CO)c2O           true (1)
11  O=C1c2ccccc2C(=O)c2c1ccc(O[C@@H]1O[C@H](CO[C@@H]3OC[C@@H](O)[C@H](O)[C@H]3O)[C@@H](O)[C@H](O)[C@H]1O)c2O          false (0)

###

Test system: CCRIS mutagenicity, Ames/micronucleus/aberration tests
Experiment: CCRIS mutagenicity studies
Conditions: Test System: AMES SALMONELLA TYPHIMURIUM; Strain/Indicator: TA98; Metabolic Activation: NONE; Method: STANDARD PLATE
The source made the active and inactive calls. How the calls were made is not given here.
Possible outcomes: TRUE = active, FALSE = inactive

> print(dat)
                                   compound                               test.target  qualitative.label
1        CC(=O)OCc1c2ccccc2cc2ccc3ccccc3c12  CCRIS mutagenicity, Ames/micronucleus/aberration tests               TRUE
2       CN1C(=O)CN=C(c2ccccc2)c2cc(Cl)ccc21  CCRIS mutagenicity, Ames/micronucleus/aberration tests              FALSE
3  CCc1cccc2c3c([nH]c12)C(C)(CC)OCC3 (configuration not stated)  CCRIS mutagenicity, Ames/micronucleus/aberration tests              FALSE
4  CCCCCCCCCCCCOC(=O)CCSCCC(=O)OCCCCCCCCCCCC  CCRIS mutagenicity, Ames/micronucleus/aberration tests              FALSE
5                        COc1cc(N)cc(OC)c1N  CCRIS mutagenicity, Ames/micronucleus/aberration tests              FALSE
6  O=[N+]([O-])c1ccc2ccc3c([N+](=O)[O-])cccc3c2c1  CCRIS mutagenicity, Ames/micronucleus/aberration tests               TRUE
7                                   CCOCOCC  CCRIS mutagenicity, Ames/micronucleus/aberration tests              FALSE

###

Tested on: CCRIS mutagenicity, Ames/micronucleus/aberration tests
Experiment: CCRIS mutagenicity studies
Conditions: Test System: E.COLI; Strain/Indicator: WP2 UVRA; Metabolic Activation: RAT LIVER S-9, PCB; Method: PREINCUBATION
Active and inactive are the calls of the source. No rule for the calls is given here.
Possible outcomes: yes for active, no for inactive

> print(dat)
             smiles.text  qualitative.label
1  O=C(Cl)c1c(Cl)cccc1Cl                yes
2   O=C(O)c1c(Cl)cccc1Cl                 no
3     O=C(O)c1cccc(Cl)c1                 no
4       O=C(O)c1ccccc1Cl                 no
5        O=C(Cl)c1ccccc1                yes

###

Tested on: CCRIS mutagenicity, Ames/micronucleus/aberration tests
Assay: CCRIS mutagenicity studies
Conditions: Test System: AMES SALMONELLA TYPHIMURIUM; Strain/Indicator: TA102; Metabolic Activation: NONE; Method: STANDARD PLATE
From the text: The CCRIS database contains chemical records with carcinogenicity, mutagenicity, tumor promotion, and tumor inhibition test results. It was developed by the National Cancer Institute (NCI). Data are derived from studies cited in primary journals, current awareness tools, NCI reports, and other sources. Test results have been reviewed by experts in carcinogenesis and mutagenesis. CCRIS provides historical information from the years 1985 - 2011. It is no longer updated. […]
Activity calls are given as the source filed them. How the calls were made is not given here. *1 amine or outer side, *2 acyl side, *3 side chain or, on linkers, in order; H or OH if unused. Where a SMILES comes first, the peptide text is derived from it. Bridges are numbered along the chain shown (N, C = ends). Roman numbers before positions name the chains, in order. [ ]: non-standard residue; d: D form. Actinocin(9to1) = Cc1c2oc3c(C)ccc(C(=O)[*:1])c3nc-2c(C(=O)[*:2])c(N)c1=O; NMeV = CN[C@H](C(=O)O)C(C)C; Sar = CNCC(=O)O

COMPOUND	mutagenic call
COc1ccc(O)cc1	inactive; negative
CC(=O)c1cc2c(cc1C)C(C)(C)C(C)C2C(C)C (stereo not drawn)	inactive; negative
CN(C)C(=O)c1nc(CNC(=O)CN)n(-c2ccc(Cl)cc2C(=O)c2ccccc2Cl)n1	inactive; negative
O=C1c2cccc(O)c2C(=O)c2c(O)cc(CO)cc21	inactive; negative
Cc1c2oc3c(C)ccc(C(=O)N[C@@H]4C(=O)N[C@H](C(C)C)C(=O)N5CCC[C@H]5C(=O)N(C)CC(=O)N(C)[C@@H](C(C)C)C(=O)O[C@@H]4C)c3nc-2c(C(=O)N[C@@H]2C(=O)N[C@H](C(C)C)C(=O)N3CCC[C@H]3C(=O)N(C)CC(=O)N(C)[C@@H](C(C)C)C(=O)O[C@@H]2C)c(N)c1=O (I: T[dV]P[Sar][NMeV] / II: T[dV]P[Sar][NMeV]; ester I:1-I:C, II:1-II:C; linker I:N-II:N via Actinocin(9to1))	inactive; negative
CCOC(=O)c1[nH]c2ccccc2c1N=Cc1ccc(C)cc1	inactive; negative
Cc1ccc(N=CN(C)C=Nc2ccc(C)cc2C)c(C)c1	inactive; negative
ClCC1C(CCl)[C@@]2(Cl)C(Cl)=C(Cl)[C@]1(Cl)C2(Cl)Cl (stereo partly drawn)	inactive; negative
Clc1cncc(Cl)c1	inactive; negative
Cc1cc(C)cc(C)c1	inactive; negative
O=C1c2ccccc2C(=O)N1SC(Cl)(Cl)Cl	inactive; negative
Cc1ccc(C(=O)c2cc(O)c(O)c([N+](=O)[O-])c2)cc1	inactive; negative
CC(O)CN(CCN(CC(C)O)CC(C)O)CC(C)O (stereo not drawn)	inactive; negative
CC(C)COC(=O)CCCCC(=O)OCC(C)C	inactive; negative
CC(C)(S)[C@H](N)C(=O)O	active; positive
CCOC(=O)C(SP(=S)(OC)OC)c1ccccc1 (stereo not drawn)	inactive; negative
COC1=CC(=O)c2c(ncc3c2[nH]c2ccccc23)C1=O	active; positive
CC(C)CCC[C@@H](C)[C@H]1CC[C@H]2[C@@H]3C[C@@H]4N(N5C(=O)c6ccccc6C5=O)[C@@]45C[C@@H](Cl)CC[C@]5(C)[C@H]3CC[C@]12C (stereo partly drawn)	inactive; negative
COc1ccc(CN(CC[N+](C)(C)[O-])c2ccccn2)cc1	inactive; negative
ICI	inactive; negative
CNNC	inactive; negative
Nc1n[nH]c(N)n1	active; positive
ClC1=C(Cl)[C@]2(Cl)[C@@H]3[C@@H]4C[C@@H]([C@H]5O[C@@H]45)[C@@H]3[C@@]1(Cl)C2(Cl)Cl	inactive; negative
COc1cccc2c1ccc1c(C(=O)O)cc3c(c12)OCO3	active; positive
Nc1ccc(N)cc1	inactive; negative
O=C1NC(=S)NC(=O)C1C(=O)Nc1ccccc1	inactive; negative
O=C(O)C(Cl)CCl (stereo not drawn)	inactive; negative
CC1OC(OC2CC(O)(CO)Cc3c(O)c4c(c(O)c32)C(=O)c2ccccc2C4=O)C(I)C(O)C1O (stereo not drawn)	active; positive
COc1cc(O)c2c(=O)c(O)c(-c3ccc(O)c(O)c3)oc2c1	inactive; negative
O=c1[nH]c(=O)n([C@H]2C[C@H](O)[C@@H](CO)O2)cc1COO	active; positive
c1c[nH]cn1	inactive; negative
CC1(C)CC(N)CC(C)(C)N1[O]	inactive; negative
C/C=C/C=C/CCCCCCCOC(C)=O	inactive; negative
